- target.system: Retriever complex (VPS35L, VPS26C, VPS29) (human, UniProt Q7Z3J2;O14972;Q9UBQ0-2)
- Sequence (Q7Z3J2 whole entry, chain 1 of 2): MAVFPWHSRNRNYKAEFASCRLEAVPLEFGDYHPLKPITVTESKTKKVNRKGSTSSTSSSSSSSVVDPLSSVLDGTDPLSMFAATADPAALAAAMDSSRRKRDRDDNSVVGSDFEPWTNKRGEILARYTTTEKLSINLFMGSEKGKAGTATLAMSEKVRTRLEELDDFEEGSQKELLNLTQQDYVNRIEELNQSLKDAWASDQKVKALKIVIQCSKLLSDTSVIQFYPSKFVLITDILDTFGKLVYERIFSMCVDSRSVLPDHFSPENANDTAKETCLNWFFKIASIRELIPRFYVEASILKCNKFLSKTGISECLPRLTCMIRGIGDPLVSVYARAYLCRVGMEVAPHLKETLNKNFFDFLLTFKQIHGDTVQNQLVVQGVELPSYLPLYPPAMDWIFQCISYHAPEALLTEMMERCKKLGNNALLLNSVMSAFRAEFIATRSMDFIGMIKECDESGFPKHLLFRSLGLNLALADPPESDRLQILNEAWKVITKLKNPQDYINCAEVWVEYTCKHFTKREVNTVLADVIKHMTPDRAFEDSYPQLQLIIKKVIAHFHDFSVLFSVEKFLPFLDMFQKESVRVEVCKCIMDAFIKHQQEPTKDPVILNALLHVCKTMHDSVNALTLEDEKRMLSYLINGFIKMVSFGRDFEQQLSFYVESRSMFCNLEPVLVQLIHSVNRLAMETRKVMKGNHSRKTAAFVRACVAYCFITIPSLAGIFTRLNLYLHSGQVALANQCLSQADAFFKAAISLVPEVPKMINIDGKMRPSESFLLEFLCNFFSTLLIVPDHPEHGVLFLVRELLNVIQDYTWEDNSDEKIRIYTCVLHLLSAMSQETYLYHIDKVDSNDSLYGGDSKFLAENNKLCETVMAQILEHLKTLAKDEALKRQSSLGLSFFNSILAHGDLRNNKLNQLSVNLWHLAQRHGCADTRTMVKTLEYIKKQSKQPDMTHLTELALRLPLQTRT
- Sequence (O14972 whole entry, chain 2 of 2): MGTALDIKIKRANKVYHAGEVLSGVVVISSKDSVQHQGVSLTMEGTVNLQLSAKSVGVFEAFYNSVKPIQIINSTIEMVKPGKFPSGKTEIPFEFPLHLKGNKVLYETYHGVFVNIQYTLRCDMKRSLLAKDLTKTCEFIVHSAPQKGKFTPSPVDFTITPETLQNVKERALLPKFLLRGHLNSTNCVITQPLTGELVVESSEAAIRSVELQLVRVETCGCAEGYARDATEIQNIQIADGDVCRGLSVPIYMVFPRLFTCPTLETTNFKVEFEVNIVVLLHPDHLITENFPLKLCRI
- protocol.description: equilibrium pull-down
measured.attribute: Kd

Requested read-out: Kd. Entry: ASASDVHGNFAFEGIGDEDL [GST-SNX17 CT (GST-tagged tail peptide, last 20 residues of SNX17)]
~110 nM
